Tested on: OVCAR-3 ovarian
assay-protocol: NCI tumour cell line growth inhibition, 48 h
value-kind: TGI

{"columns": ["compound", "TGI"],
 "data": [
  ["CC/C(Cl)=N\\OC(=O)Nc1ccc(OC)cc1", "10.7 µM"]
]}

Task item: Sample COc1ccc(/C=N\N2CC(=O)N3C4C=CC(CC4)N3C2=O)cc1 (stereo unspecified) — what was its TGI?
Reply: > 100 µM

Task item: Sample "C=Nc1ccc([N+](=O)[O-])cc1" — what was its TGI?
Reply: > 100 µM

Task item: Sample COc1ccc(C2SC(N)=Nc3c2c(C)nn3C(=O)c2ccncc2)cc1 (stereo unspecified) — what was its TGI?
Reply: > 100 µM

Task item: Sample C=C1C(=O)OC(CCCCCCCC)C1C(=O)O (stereo unspecified) — what was its TGI?
Reply: 19.5 µM

Task item: Sample CCOC(=O)C1=CN=C2C(=O)N(c3ccccc3)N(C)C2(C)C1=N (stereo unspecified) — what was its TGI?
Reply: > 100 µM

Task item: Sample "O=c1ccc2nc(-c3ccccc3)nn(-c3ccccc3)c-2c1" — what was its TGI?
Reply: 2.34 µM

Task item: Sample "Cc1c2c(n3c(nc4ccccc43)c1C#N)SCC2" — what was its TGI?
Reply: > 10 µM

Task item: Sample "C=C1C(=O)O[C@@H]2[C@@H]3O[C@@](C)(CC/C=C(\C)CCC[C@@H]2C)[C@H](O)C[C@@H]13" — what was its TGI?
Reply: 3.34 µM

Task item: Sample "O=C(Nc1ccccc1)c1cc2c(cc1Cl)Sc1nccn1S2(=O)=O" — what was its TGI?
Reply: 59.3 µM

Task item: Sample "CC(C)(O)Cn1c(=O)c(Oc2ccc(F)cc2F)cc2cnc(NC3CCOCC3)nc21" — what was its TGI?
Reply: > 25 µM

---

System: SK-MEL-5 melanoma
assay-protocol: NCI tumour cell line growth inhibition, 48 h
value-kind: TGI (µM)
Kindly provide the numeric value in µM only, without the unit symbol.

{"columns": ["molecule", "TGI (µM)"],
 "data": [
  ["Cc1cc(NS(=O)(=O)c2ccc(NC(=O)c3ccc4nc5ccccc5c(Nc5ccc(S(=O)(=O)N=C(N)N)cc5)c4c3)cc2)no1", 30.5],
  ["O=c1c2ccccc2oc2c1ccc1ncccc12", 28],
  ["COc1ccc2oc(S(=O)(=O)N3CC(CCl)c4ccc([N+](=O)[O-])cc43)cc2c1 (centres undefined)", 5.45]
]}

Task item: Sample "CC1(C)CCC[C@]2(C)[C@@H]1CC[C@@]13O[C@@H]1C1=C(CO)C(=O)O[C@]14O[C@@H]4[C@@H]23" — what was its TGI?
Reply: 31.7

---

System: OVCAR-5 ovarian
assay-protocol: NCI tumour cell line growth inhibition, 48 h
value-kind: TGI

{"columns": ["compound", "target-system", "result"],
 "data": [
  ["COC(=O)C1=C(O)C(O)=C(C(=O)OC)CC1", "OVCAR-5 ovarian", "> 100 µM"],
  ["O=C(NCC1Nc2ccncc2S(=O)(=O)N1)c1ccc(Br)cc1 (stereo not given)", "OVCAR-5 ovarian", "> 100 µM"],
  ["CC(=O)OC1COC(N2C(=O)C(=O)c3c(C)cc(Cl)nc32)C(OC(C)=O)C1OC(C)=O (stereo not given)", "OVCAR-5 ovarian", "> 100 µM"],
  ["CC1(C)CCC[C@]2(C)[C@@H]1CC[C@@]13O[C@@H]1C1=C(CO)C(=O)O[C@]14O[C@@H]4[C@@H]23", "OVCAR-5 ovarian", "31.8 µM"]
]}

In the following, a different compound is considered.
Task item: Sample "O=C(Cn1ccnc1[N+](=O)[O-])NCCO" — what was its TGI?
Reply: > 100 µM

---

Tested on: A549 NSCLC
assay-protocol: NCI tumour cell line growth inhibition, 48 h
value-kind: TGI

Check out these entries, answers already filled in.
{"columns": ["compound", "result"],
 "data": [
  ["O=C1COC(c2ccccc2O)=NN1CCCN1CCCC1", "> 100 µM"],
  ["C=CCCc1cc(OC)ccc1CN(C)C(C)(C)CO", "> 100 µM"],
  ["CCOC(=O)c1ccc(-c2cc(C)[nH]n2)[nH]1", "> 100 µM"],
  ["CCOC(=O)c1cnc2ccc(Cl)cc2c1NCCCN(C)C", "67.7 µM"],
  ["CC(C)Oc1cc(OCC(=O)O)cc(C(=O)N(CCC(N)=O)C(=O)Nc2ccc(C(=O)O)cc2OC(C)C)c1", "> 100 µM"],
  ["CC1(C)C2CCC1(CS(=O)(=O)Nc1ccccc1)C(=O)C2 (stereo unspecified)", "> 100 µM"]
]}

Task item: Sample CC(C)c1ccc2c(c1)CCC1C(C)(C)[C@@H](O)CC[C@]21C (stereo partly specified) — what was its TGI?
Reply: > 100 µM

Task item: Sample "[O-][n+]1onc2c3nn(-c4ccccc4)nc3ccc21" — what was its TGI?
Reply: > 100 µM

Task item: Sample COc1cc2c(cc1OC)C1CN3C(=O)CCC3C(O)C1c1cc(OC)c(OC)cc1-2 (stereo unspecified) — what was its TGI?
Reply: > 100 µM

Task item: Sample "CC(C)(C)C#C[P+](c1ccccc1)(c1ccccc1)c1ccccc1" — what was its TGI?
Reply: 1.91 µM

Task item: Sample "Cc1cc(O)c(C(C)C)cc1NC(=O)Nc1cccc2ccccc12" — what was its TGI?
Reply: 45.4 µM

---

Tested on: HOP-62 NSCLC
assay-protocol: NCI tumour cell line growth inhibition, 48 h
TGI by entry:
Kindly provide the numeric value in µM only, without the unit symbol.

{"columns": ["molecule", "target-system", "TGI, µM"],
 "data": [
  ["CC(C)c1ccc2c(c1)CCC1C(C)(C)[C@@H](O)CC[C@]21C (stereo partly specified)", "HOP-62 NSCLC", 37.4],
  ["O=C(CC(O)(c1ccccc1)c1ccc(Cl)cc1)NC(=O)c1ccccc1O (stereo unspecified)", "HOP-62 NSCLC", 25.6],
  ["COC(c1ccsc1)C(C#N)(C#N)N=Cc1ccsc1 (stereo unspecified)", "HOP-62 NSCLC", 34.8],
  ["CC(=O)Oc1c(-c2ccccc2)[nH]c2cc([N+](=O)[O-])c(/C(Cl)=C/c3ccccc3)cc12", "HOP-62 NSCLC", 61.5],
  ["CCOC(=O)c1cnc2ccc(Cl)cc2c1NCCCN(C)C", "HOP-62 NSCLC", 94.8]
]}

In the following, a different molecule is considered.
Task item: Give TGI (HOP-62 NSCLC) of the following molecule: "C=C1C(=O)O[C@@H]2[C@@H]3O[C@@](C)(CC/C=C(\C)CCC[C@@H]2C)[C@H](O)C[C@@H]13"
Reply: 24

---

Tested on: LXFL 529 NSCLC
assay-protocol: NCI tumour cell line growth inhibition, 48 h
TGI by entry:

{"columns": ["compound", "result"],
 "data": [
  ["CCN(CC)CCN(C)CC(C)(C)C(=O)/C=C/c1ccccc1", "24.7 µM"],
  ["COC(=O)C1Cc2c([nH]c3ccccc23)[C@H](CC(C)C)N1 (stereo partly specified)", "> 100 µM"],
  ["CN1CCC(O)C(CNC23CC4CC(CC(C4)C2)C3)C1 (stereo unspecified)", "> 100 µM"],
  ["O=C(c1ccccc1)c1nnn(Cc2cccc(Cl)c2)c1C(=O)c1ccccc1", "> 100 µM"],
  ["CC(C)c1ccc2c(c1)CCC1C(C)(C)[C@@H](O)CC[C@]21C (stereo partly specified)", "> 100 µM"]
]}

Task item: Sample "Cc1ccc(S(=O)(=O)NCCCN(CCCNS(=O)(=O)c2ccc(C)cc2)S(=O)(=O)c2ccc(C)cc2)cc1" — what was its TGI?
Reply: > 100 µM

---

Test system: SNB-19 CNS
assay-protocol: NCI tumour cell line growth inhibition, 48 h
TGI by entry:

Check out these entries, answers already filled in.
{"columns": ["molecule", "target-system", "value-kind", "result"],
 "data": [
  ["Cc1c(-c2ccccc2)c(C#N)c2nnn(-c3ccccc3)c(=O)n12", "SNB-19 CNS", "TGI", "> 100 µM"],
  ["CC(C)NC(=O)OCc1nnn2c1C(OC(=O)NC(C)C)CC2 (configuration not stated)", "SNB-19 CNS", "TGI", "> 100 µM"],
  ["C=CCNC1=C2C[C@@H](C)C[C@@H](OC)C(OC(=O)CCCN(C)C)[C@H](C)/C=C(\\C)[C@@H](OC(N)=O)[C@H](OC)/C=C\\C=C(/C)C(=O)NC(=CC1=O)C2=O (some centres not stated)", "SNB-19 CNS", "TGI", "28.9 µM"],
  ["COc1ccc(/C=N\\N2CC(=O)N3C4C=CC(CC4)N3C2=O)cc1 (configuration not stated)", "SNB-19 CNS", "TGI", "> 100 µM"],
  ["Cc1cc(O)c(C(C)C)cc1NC(=O)Nc1cccc2ccccc12", "SNB-19 CNS", "TGI", "30.2 µM"],
  ["CC[C@]1(O)C[C@@H]2CN(Cc3c([nH]c4ccccc34)[C@@](C(=O)OC)(c3cc4c(cc3OC)N(C)[C@H]3[C@@](O)(C(=O)OC)[C@H](OC(C)=O)[C@]5(CC)[C@@H]6C[C@@H]6CN6CC[C@]43[C@@H]65)C2)C1", "SNB-19 CNS", "TGI", "> 4.38 µM"]
]}

Task item: Sample "[O-][n+]1onc2c3nn(-c4ccccc4)nc3ccc21" — what was its TGI?
Reply: > 100 µM

Task item: Sample CC(=O)NC1(C)CCC(C(C)(C)NC(C)=O)CC1 (configuration not stated) — what was its TGI?
Reply: > 100 µM

Task item: Sample "O=C(O)Cc1ccc(Oc2nc3ccccc3nc2-c2cccs2)cc1" — what was its TGI?
Reply: > 100 µM

Task item: Sample "Cn1ccnc1CCc1ccc(F)cc1F" — what was its TGI?
Reply: > 100 µM

Task item: Sample "CCCCc1ccc2nc(NC(=O)OC)[nH]c2c1" — what was its TGI?
Reply: > 100 µM

Task item: Sample CC1=NN(c2cccc(Cl)c2)C2(C1)C(Cl)C(=O)N2c1nc2ccccc2s1 (configuration not stated) — what was its TGI?
Reply: > 100 µM
